Where do the numbers come from? From BigSolDB 2.1.

# Assay setup: in n-propanol, 318.15 K
Measure name: solubility (mole fraction)
Quick one: just the number, no unit, thanks!

Sample N[C@H](Cc1c[nH]c2ccccc12)C(=O)O ; solubility (mole fraction) observed: 0.000177

---

# Assay setup: in n-butanol, 318.15 K
Measure name: solubility (mole fraction)
Quick one: just the number, no unit, thanks!

Sample N[C@H](Cc1c[nH]c2ccccc12)C(=O)O ; solubility (mole fraction) observed: 9.26e-05

---

# Assay setup: in n-butanol, 298.15 K
Measure name: solubility (mole fraction)
Quick one: just the number, no unit, thanks!

Sample N[C@H](Cc1c[nH]c2ccccc12)C(=O)O ; solubility (mole fraction) observed: 3.52e-05

---

# Assay setup: in DMSO, 298.15 K
Measure name: solubility (mole fraction)
Quick one: just the number, no unit, thanks!

Sample N[C@H](Cc1c[nH]c2ccccc12)C(=O)O ; solubility (mole fraction) observed: 0.00381

---

# Assay setup: in acetonitrile, 293.15 K
Measure name: solubility (mole fraction)
Quick one: just the number, no unit, thanks!

Sample N[C@H](Cc1c[nH]c2ccccc12)C(=O)O ; solubility (mole fraction) observed: 8.14e-05

---

# Assay setup: in ethyl acetate, 298.15 K
Measure name: solubility (mole fraction)

Sample N[C@H](Cc1c[nH]c2ccccc12)C(=O)O ; solubility (mole fraction) observed: 0.000476

---

# Assay setup: in ethylene glycol, 313.15 K
Measure name: solubility (mole fraction)
Quick one: just the number, no unit, thanks!

Sample N[C@H](Cc1c[nH]c2ccccc12)C(=O)O ; solubility (mole fraction) observed: 0.00804

---

# Assay setup: in n-propanol, 283.15 K
Measure name: solubility (mole fraction)
Quick one: just the number, no unit, thanks!

Sample N[C@H](Cc1c[nH]c2ccccc12)C(=O)O ; solubility (mole fraction) observed: 4.51e-05

---

# Assay setup: in n-octanol, 323.15 K
Measure name: solubility (mole fraction)
Quick one: just the number, no unit, thanks!

Sample N[C@H](Cc1c[nH]c2ccccc12)C(=O)O ; solubility (mole fraction) observed: 5.87e-05

---

# Assay setup: in ethylene glycol, 283.15 K
Measure name: solubility (mole fraction)

Sample N[C@H](Cc1c[nH]c2ccccc12)C(=O)O ; solubility (mole fraction) observed: 0.00148

---

# Assay setup: in n-butanol, 308.15 K
Measure name: solubility (mole fraction)
Quick one: just the number, no unit, thanks!

Sample N[C@H](Cc1c[nH]c2ccccc12)C(=O)O ; solubility (mole fraction) observed: 5.68e-05

---

# Assay setup: in ethylene glycol, 298.15 K
Measure name: solubility (mole fraction)

Sample N[C@H](Cc1c[nH]c2ccccc12)C(=O)O ; solubility (mole fraction) observed: 0.00318

---

# Assay setup: in n-butanol, 323.15 K
Measure name: solubility (mole fraction)
Quick one: just the number, no unit, thanks!

Sample N[C@H](Cc1c[nH]c2ccccc12)C(=O)O ; solubility (mole fraction) observed: 0.00012

---

# Assay setup: in DMSO, 323.15 K
Measure name: solubility (mole fraction)
Quick one: just the number, no unit, thanks!

Sample N[C@H](Cc1c[nH]c2ccccc12)C(=O)O ; solubility (mole fraction) observed: 0.00778

---

# Assay setup: in n-propanol, 293.15 K
Measure name: solubility (mole fraction)
Quick one: just the number, no unit, thanks!

Sample N[C@H](Cc1c[nH]c2ccccc12)C(=O)O ; solubility (mole fraction) observed: 7.27e-05

---

# Assay setup: in acetonitrile, 318.15 K
Measure name: solubility (mole fraction)
Quick one: just the number, no unit, thanks!

Sample N[C@H](Cc1c[nH]c2ccccc12)C(=O)O ; solubility (mole fraction) observed: 0.000241

---

# Assay setup: in ethyl acetate, 288.15 K
Measure name: solubility (mole fraction)

Sample N[C@H](Cc1c[nH]c2ccccc12)C(=O)O ; solubility (mole fraction) observed: 0.000302

---

# Assay setup: in n-propanol, 288.15 K
Measure name: solubility (mole fraction)
Quick one: just the number, no unit, thanks!

Sample N[C@H](Cc1c[nH]c2ccccc12)C(=O)O ; solubility (mole fraction) observed: 6.23e-05

---

# Assay setup: in ethylene glycol, 308.15 K
Measure name: solubility (mole fraction)
Quick one: just the number, no unit, thanks!

Sample N[C@H](Cc1c[nH]c2ccccc12)C(=O)O ; solubility (mole fraction) observed: 0.00547

---

# Assay setup: in ethyl acetate, 323.15 K
Measure name: solubility (mole fraction)

Sample N[C@H](Cc1c[nH]c2ccccc12)C(=O)O ; solubility (mole fraction) observed: 0.00141

---

# Assay setup: in DMSO, 313.15 K
Measure name: solubility (mole fraction)
Quick one: just the number, no unit, thanks!

Sample N[C@H](Cc1c[nH]c2ccccc12)C(=O)O ; solubility (mole fraction) observed: 0.00596

---

# Assay setup: in n-butanol, 293.15 K
Measure name: solubility (mole fraction)

Sample N[C@H](Cc1c[nH]c2ccccc12)C(=O)O ; solubility (mole fraction) observed: 2.99e-05

---

# Assay setup: in n-butanol, 313.15 K
Measure name: solubility (mole fraction)
Quick one: just the number, no unit, thanks!

Sample N[C@H](Cc1c[nH]c2ccccc12)C(=O)O ; solubility (mole fraction) observed: 7.9e-05

---

# Assay setup: in n-octanol, 293.15 K
Measure name: solubility (mole fraction)
Quick one: just the number, no unit, thanks!

Sample N[C@H](Cc1c[nH]c2ccccc12)C(=O)O ; solubility (mole fraction) observed: 1.88e-05

---

# Assay setup: in acetonitrile, 298.15 K
Measure name: solubility (mole fraction)
Quick one: just the number, no unit, thanks!

Sample N[C@H](Cc1c[nH]c2ccccc12)C(=O)O ; solubility (mole fraction) observed: 0.000107

---

# Assay setup: in ethylene glycol, 288.15 K
Measure name: solubility (mole fraction)

Sample N[C@H](Cc1c[nH]c2ccccc12)C(=O)O ; solubility (mole fraction) observed: 0.00167

---

# Assay setup: in ethylene glycol, 323.15 K
Measure name: solubility (mole fraction)
Quick one: just the number, no unit, thanks!

Sample N[C@H](Cc1c[nH]c2ccccc12)C(=O)O ; solubility (mole fraction) observed: 0.0125

---

# Assay setup: in n-propanol, 298.15 K
Measure name: solubility (mole fraction)
Quick one: just the number, no unit, thanks!

Sample N[C@H](Cc1c[nH]c2ccccc12)C(=O)O ; solubility (mole fraction) observed: 8.69e-05

---

# Assay setup: in n-octanol, 298.15 K
Measure name: solubility (mole fraction)
Quick one: just the number, no unit, thanks!

Sample N[C@H](Cc1c[nH]c2ccccc12)C(=O)O ; solubility (mole fraction) observed: 2.49e-05

---

# Assay setup: in DMSO, 303.15 K
Measure name: solubility (mole fraction)
Quick one: just the number, no unit, thanks!

Sample N[C@H](Cc1c[nH]c2ccccc12)C(=O)O ; solubility (mole fraction) observed: 0.00464

---

# Assay setup: in acetonitrile, 328.15 K
Measure name: solubility (mole fraction)

Sample N[C@H](Cc1c[nH]c2ccccc12)C(=O)O ; solubility (mole fraction) observed: 0.000372

---

# Assay setup: in acetonitrile, 288.15 K
Measure name: solubility (mole fraction)
Quick one: just the number, no unit, thanks!

Sample N[C@H](Cc1c[nH]c2ccccc12)C(=O)O ; solubility (mole fraction) observed: 6.84e-05

---

# Assay setup: in n-octanol, 313.15 K
Measure name: solubility (mole fraction)

Sample N[C@H](Cc1c[nH]c2ccccc12)C(=O)O ; solubility (mole fraction) observed: 4.02e-05

---

# Assay setup: in ethyl acetate, 308.15 K
Measure name: solubility (mole fraction)
Quick one: just the number, no unit, thanks!

Sample N[C@H](Cc1c[nH]c2ccccc12)C(=O)O ; solubility (mole fraction) observed: 0.000699

---

# Assay setup: in n-octanol, 283.15 K
Measure name: solubility (mole fraction)
Quick one: just the number, no unit, thanks!

Sample N[C@H](Cc1c[nH]c2ccccc12)C(=O)O ; solubility (mole fraction) observed: 1.36e-05

---

# Assay setup: in ethylene glycol, 328.15 K
Measure name: solubility (mole fraction)
Quick one: just the number, no unit, thanks!

Sample N[C@H](Cc1c[nH]c2ccccc12)C(=O)O ; solubility (mole fraction) observed: 0.0161

---

# Assay setup: in ethyl acetate, 283.15 K
Measure name: solubility (mole fraction)
Quick one: just the number, no unit, thanks!

Sample N[C@H](Cc1c[nH]c2ccccc12)C(=O)O ; solubility (mole fraction) observed: 0.000238

---

# Assay setup: in DMSO, 293.15 K
Measure name: solubility (mole fraction)
Quick one: just the number, no unit, thanks!

Sample N[C@H](Cc1c[nH]c2ccccc12)C(=O)O ; solubility (mole fraction) observed: 0.00359

---

# Assay setup: in n-octanol, 318.15 K
Measure name: solubility (mole fraction)
Quick one: just the number, no unit, thanks!

Sample N[C@H](Cc1c[nH]c2ccccc12)C(=O)O ; solubility (mole fraction) observed: 4.83e-05
